- MEASUREMENT PROTOCOL: AUC (0 to t) in ICR mouse at 25 mg/kg, IG by LC-MS/MS analysis
- Type: ADME, organism-based
- CONDITION: in vivo, po
VALUE KIND: AUC(0-t) (µg·h/mL)

CCN(CCN)Cc1cccc(Br)c1 ... 0.914

====

- MEASUREMENT PROTOCOL: Tmax in ICR mouse at 5 mg/kg, iv by LC-MS/MS analysis
- Type: ADME, organism-based
- CONDITION: in vivo
VALUE KIND: Tmax (min)

CCN(CCN)Cc1cccc(Br)c1 ... 4.98

====

- MEASUREMENT PROTOCOL: Apparent volume of distribution in ICR mouse at 5 mg/kg, iv by LC-MS/MS analysis
- Type: ADME, organism-based
- CONDITION: in vivo, read-out: Vz
VALUE KIND: Vd (L/kg)

CCN(CCN)Cc1cccc(Br)c1 ... 44.1

====

- Tested on: Cortical neurone
- MEASUREMENT PROTOCOL: Neuroprotective activity against NMDA-induced excitotoxic cell death in C57BL/6 mouse primary cortical neurons assessed as cell viability at 10 uM by CCK8 assay (reference value: 16.31 +/- 3.19 %)
- Assay type: functional
- CONDITION: C57BL/6, Cortical neurone, read-out: Activity
VALUE KIND: viability at 10 µM (%)

CCN(CCN)Cc1ccc(Br)c(C#N)c1 ... 22.2
CCN(CCN)Cc1ccc(Br)cc1 ... 21.2
CCN(CCN)C(C)c1cc(C#N)ccc1F (centres undefined) ... 82.4
CCCN(CCN)Cc1cccc(Br)c1 ... 44.6
CCN(CCN)Cc1cc(Br)ccc1F ... 87.1
CCN(CCN)C(C)c1c(F)ccc(C#N)c1Cl (centres undefined) ... 70.5
CCN(CCN)Cc1cccc(C)c1 ... 22.7
CCN(CCN)C(C)c1cc(Br)ccc1Cl (centres undefined) ... 81.6
CCN(CCN)Cc1cccc(F)c1 ... 32

====

- MEASUREMENT PROTOCOL: MRT (0 to t) in ICR mouse at 25 mg/kg, IG by LC-MS/MS analysis
- Type: ADME, organism-based
- CONDITION: in vivo, po
VALUE KIND: MRT last

CCN(CCN)Cc1cccc(Br)c1 ... 2.38 h

====

- Tested on: Cortical neurone
- MEASUREMENT PROTOCOL: Neuroprotective activity against NMDA-induced excitotoxic cell death in C57BL/6 mouse primary cortical neurons assessed as cell viability at 10 uM by CCK8 assay (reference value: 16.31 +/- 3.19 %)
- Format: functional
- CONDITION: C57BL/6, Cortical neurone, read-out: Activity
Attribute: viability at 10 µM
VALUE KIND: viability at 10 µM (%)

CCN(CCN)Cc1cccc(Br)c1 ... 63.2
CCN(CCN)C(C)c1cccc(C#N)c1Br (stereo not drawn) ... 67.4
CCN(CCN)Cc1c(F)ccc(C#N)c1F ... 90.4
CCN(CCNC)Cc1cccc(Br)c1 ... 17.6
CCN(CCN)C(C)c1cccc(C#N)c1F (stereo not drawn) ... 70.4
CCC(c1cccc(Br)c1)N(CC)CCN (stereo not drawn) ... 38.3
CCN(CCN)Cc1cccc(C(F)(F)F)c1 ... 16.9
CCN(CCCN)Cc1cccc(Br)c1 ... 10.8
